Value source: the DeepSol protein solubility set

experiment: soluble on expression in E. coli; label from the status in PepcDB or PDB records
MEASURE_NAME: soluble on expression in E. coli

# RESIDUE_SEQUENCE, REPORTED
measured = [
    ("LVGSRREIAARNLELCFPEKSPAERERLLKENFASSGIAFFEMAMSWWWPKARLARLAHIEGLEHLREAQAQGEGVILMALHFTTLEIGAALLGQVHTIDGMYREHDNPVFDYVQRRGRERHNLDATAIEREDVRSMLKVLRGGRAIWYAPDQDYGAKQSLFVPLFGIPAATVTATTKFARLGRARVLPFTQSRLADGSGYRLTIHPPLEDFPGESEEADCLRINQWVERCVRQQPEQYLWAHRRFKTRPPGEAK", "not soluble"),
    ("MIGGRDDYPESGFSLPFEPGPRRMQIKRGIRILGIDDSPFSRGDRESNLVGVLMRMDGYVEMMEKEKIQVDGDDVNRAIENLFLYTGRVARIIMMSGISFAGFNICDIDALYQRIRVPVISVFEQGGSVERMIAAIEKHLDDPEKVRILRSLKPVEIRNNGYIIMANLSGIDAQSAQEIITRNTIRGKFPEAIRLADLVGKILGR", "not soluble"),
    ("MTESSLDLGVIGNCSFGALVDRQARVVWSCLPAFDGDPAFCSLLSPKGEGGDFAVELEDFESSEQHYLPNTAVLRTVLRDSKGGEVEVIDFAPRWRNNGRFYRPVSIIRQIRPLAGNPRIVVRARPLADWGGRLEHHHHHH", "not soluble"),
]

----------
test: soluble on expression in E. coli; label from the status in PepcDB or PDB records

# RESIDUE_SEQUENCE, soluble on expression in E. coli
data = [
    ("EEDWVLPSEVEVLESIYLDELQVIKGNGRTSPWEIYITLHPATAEDQDSQYVCFTLVLQVPAEYPHEVPQISIRNPRGLSDEQIHTILQVLGHVAKAGLGTAMLYELIEKGKEILTDNNIPHGQ", "soluble"),
    ("GPGSMVTPEQAALIEGAFRSMDRDGTGLVRLEDIFRVFDDSRHPRVRDGELAPAATRDMLMHQFGATAQAHGGVSFDVFMRFHERMAEDAAVAKVNDKELFLTDTIIGVWRLGTLLQPTLIRPLFPVNVRPSGLYATQYMSLVWVDEVAGPGSFVVHVVRDVVRPIFSRGDLPPQLRGMFAYPTELAGMKIIEERLQIATQRWLDFVWEYEEGKHAAVPGIISARVDPDTLPQYLRDMIVEHDVAKAIPSLFFVPTSVAVNPMYKRSSEEYGYGVPEEVKRMSRWKDLTYSGQACGLIYHGRVGKFTRERLNAPVQDVASAMNI", "not soluble"),
    ("MAHHHHHHMADATLLHHLIEVLPKAELHVHIEGTLSPELLFELAKRNGVQIPYKTVEEVRVAYNFTDLQSFLDLYYEGMSVLITEDDFEDLAYAYTRVMHESRVVHAEPFFDPQGHLCRGVTFRVLYDGLMRGFRRGEAEFGVSVMLIFSFLRHLSEEECLALVLDDMHPDNGQYIRELFVAKAFVAVGLDSSELGHPPEKFARLYRYCREELKVPFLVAHAGEEGPPEYMRDAMSMLKVDRIDHGVAARLDQALCKDLREKRIPLTVCPTSNVALKVFQDRATCGAVVMDLILTEGLCVTINSDDPAYFGGDIRESFRILAETGRLTPATLKQLVLNSFSSSFIADDSKRAYKERVEKVFKDVCGGTYE", "soluble"),
    ("GPGSMGKYAAVIIGPAGSGKSTLCGVLAEHYATMGRSTHIANMDPAADLLPYEPSMDIRDLISLEDAMEGKGLGPNGGLVFCMEYLVTAGATWVSQQLGDYADDFIIVDMPGQVEVLSNQPAVPAFVRLLQQEGYYTTVLYLLDALATTADSGKFISGCMFSLSSMVCFDCPFINVLTKCDLLSKDFKENGMLEHFCMCDFDYMDLSRLPPRFRAMSRQIGALLTDFNLVTFRPVDIEDVGYVSNLCSVLDETLQVADEAEVQDHDLGDN", "soluble"),
    ("MRCIMTEDAQKLAIMEQDVKIVRALSKIKHKIVVMSGKGGVGKSTVTVKLAEEFSRNGYSVCVLDADVHGPDIPKMMRVREPEITLTGNLINPIPTPVGATVMSIEFFLPSEDTPVIWRGPKKTGAIRQLLADVNWEGIDVLIVDNPPGTGDEPLTVLQSIPGIDGVVIVTTPQEVSIHDVEKCINMVNHLKIPVLGIIENMSYLQCPECGKKVFLFGKDGGKYLADKFDLQFLGEIPFETGISGDNESSASSYINNEMVKIFNKLAKYLKDGGANLEHHHHHH", "soluble"),
    ("DLREVLDFMLKDEVSKLRKLLVKIKTKKIAEVEYENVVKALKLFKDNYEINEYLMDENTKEFLIKRNILFLNPVEEILKPQSYLVWNAIKRVLQNINDF", "soluble"),
    ("MAHHHHHHMSRCGRKLDMSSGYWLPRRLLLVRHGESEANVDRALYSKVPDWKIPLTARGREQAFECGRRLRKIIKNEKLYVYYSPYTRTRQTLTEVRKSLLPSQVQGEREDERLREQEIGNFQPLDKMDEMWAERSEFGRSYYRFPDGESSVDVGDRVSKFFDSLFRERVELNYLSARKQMITGSSNDVGPASFTVPDDDDHNVVIISHGLLIRLFVGRWYSAPMEVFETMKNPPNCGIVVLERREAGRLVMTDTSKKLFGSDPLLEMMKFDGKDNVQLFRHLFAEGGYSFSAGEGTDR", "soluble"),
    ("METVQLRNPPRRQLKKLDEDSLTKQPEEVFDVLEKLGEGSYGSVYKAIHKETGQIVAIKQVPVESDLQEIIKEISIMQQCDSPHVVKYYGSYFKNTDLWIVMEYCGAGSVSDIIRLRNKTLTEDEIATILQSTLKGLEYLHFMRKIHRDIKAGNILLNTEGHAKLADFGVAGQLTDTMAKRNTVIGTPFWMAPEVIQEIGYNCVADIWSLGITAIEMAEGKPPYADIHPMRAIFMIPTNPPPTFRKPELWSDNFTDFVKQCLVKSPEQRATATQLLQHPFVRSAKGVSILRDLINEAMDVKLKRQESQQREMDQDDEENSEEDEMDSGTMVRAVGDEMGTVRVASTMTDGANTMIEHDDTLPSQLGTMVINAEDEEEEG", "soluble"),
    ("MSNVAKSYKSSDPVIAYCSEHTTIQSPLQAELLKETLDNAPMSMMLGAPEVLTFGQNFIRSFGGRRVIDVGTYTGASALAWALAVPDDGEVFTFDIDHTNYKKFGVPIISKCEKTFKKIRAIEGSALDGLDKLIADGQSGTFDFAFIDADKVNYSNYYDRAVTLLRKGGVIFVDNSLWNGSVCDPARRTEPSTVAIHQANDKIFKDDRTYSALINLGDGTHIAFKK", "not soluble"),
    ("MSYSWKKILIKPESTVVDALRVIDNEALRIALVVNDEQQLLGVVTDGDIRRGLLNNLPLETPVVDIMSRSPITASVNTAKEQLVKLMESKSILAVPLMEENKVVGLETLHHLFEEKTYHNPVFIMAGGFGTRLRPLTDTCPKPMLKIGNKPILETVIRSFIKAGFVNFYISTHYMPEQIQNHFGDGSELGVKISYVHEDSPLGTGGALGLLPDDLPQDLPLIMMNGDVLTKVDFERLLDFHTENQADATMCVREYDYQIPYGVINGKGNKITSMVEKPIQRFFVNAGIYVVSPSVIQSVPKNHHIDMPTLLEQHMNERDNILMFPIHEYWLDIGRMDDFNRAQADIHTLGLDLEHHHHHH", "not soluble"),
    ("MLRRKPTRLELKLDDTEEFESVKKELESRKKQRDEVDVVGVATSSEMSGAAGGTADGKTREQMIHERIGYKPHPKPNTLPSLFGNLQF", "soluble"),
]
